assayed-target: Aβ1-42 aggregates (Homo sapiens, UniProt P05067)
Sequence (P05067 672-713 limits assumed): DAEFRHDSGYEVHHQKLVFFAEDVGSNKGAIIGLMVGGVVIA
experiment-notes: In vitro competitive binding assay with 3′-[^125I]I-BTA-1 as radioligand, Aβ1-42 aggregates
condition-details: Aβ aggregates 20 nM, 3 h at room temperature, pH 7.2
assay-readout: pKi
Reminder that pKi means the negative base-10 logarithm of the concentration expressed in mol/L.

Using the record for FCc1ccc(-c2nc3ccccc3o2)cc1 [Benzoxaxole] , report its pKi.
7.22
